- measured_target: Lysosomal Pro-X carboxypeptidase (Mus musculus, UniProt Q7TMR0)
- Sequence (Q7TMR0 whole entry): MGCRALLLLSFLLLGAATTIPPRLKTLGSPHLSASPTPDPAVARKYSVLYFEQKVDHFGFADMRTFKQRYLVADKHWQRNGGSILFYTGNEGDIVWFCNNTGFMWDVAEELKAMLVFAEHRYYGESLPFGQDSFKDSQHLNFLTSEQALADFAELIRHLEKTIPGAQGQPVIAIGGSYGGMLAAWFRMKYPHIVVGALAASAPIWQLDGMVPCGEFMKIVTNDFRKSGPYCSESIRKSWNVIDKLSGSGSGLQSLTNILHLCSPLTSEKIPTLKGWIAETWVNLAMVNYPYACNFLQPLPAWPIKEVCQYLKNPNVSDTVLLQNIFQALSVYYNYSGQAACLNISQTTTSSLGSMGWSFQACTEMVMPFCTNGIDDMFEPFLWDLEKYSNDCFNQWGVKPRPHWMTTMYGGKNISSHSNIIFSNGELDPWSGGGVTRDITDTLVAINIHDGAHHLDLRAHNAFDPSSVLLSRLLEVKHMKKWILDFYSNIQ
- experiment_notes: Inhibition of mouse PrCP
test_readout: pIC50
Here pIC50 is given on a logarithmic scale as minus log10 of the concentration in mol/L.

Consider the following illustrative entries.
# compound_string, measured_target, pIC50
rows = [
    ("O=C(CCN1CCC(c2cn[nH]c2)CC1)N1CCC[C@H]1c1nc2cc(Cl)c(Cl)cc2[nH]1", "Lysosomal Pro-X carboxypeptidase (Mus musculus, UniProt Q7TMR0)", 6.97),
    ("CS(=O)(=O)c1ccc(-c2noc(C3CCN(CCC(=O)N4CCC[C@H]4c4nc5cc(Cl)c(Cl)cc5[nH]4)CC3)n2)cc1", "Lysosomal Pro-X carboxypeptidase (Mus musculus, UniProt Q7TMR0)", 9.39),
    ("O=C(CCN1CCC(c2nc(-c3ccncc3)no2)CC1)N1CCC[C@H]1c1nc2cc(Cl)c(Cl)cc2[nH]1", "Lysosomal Pro-X carboxypeptidase (Mus musculus, UniProt Q7TMR0)", 9.28),
    ("Cn1nc(C2CCN(CCC(=O)N3CCC[C@H]3c3nc4cc(Cl)c(Cl)cc4[nH]3)CC2)cc1-c1ccncc1", "Lysosomal Pro-X carboxypeptidase (Mus musculus, UniProt Q7TMR0)", 9.10),
    ("CC(C)(CCCC(=O)N1CCC[C@H]1c1nc2cc(Cl)c(Cl)cc2[nH]1)N1CCC(c2nc(-c3ccccn3)no2)CC1", "Lysosomal Pro-X carboxypeptidase (Mus musculus, UniProt Q7TMR0)", 7.72),
]

Turning now to a further record.
Enquiry: Bench note: what pIC50 did O=C(CCN1CCC(c2nc(-c3ccccn3)no2)CC1)N1CCC[C@H]1c1nc2cc(Cl)c(Cl)cc2[nH]1 show?
Return: 8.46

----------
- measured_target: Lysosomal Pro-X carboxypeptidase (Mus musculus)
- experiment_notes: Inhibition of PrCP in mouse plasma assessed as angiotensin 3 cleavage
- Assay type: cell-free
IC50 listing for selected molecules.
Respond numerically; units are nM and should not be typed.

# compound_string, endpoint_unit, IC50
measured = [
    ("Cn1nc(C2CCN(CCC(=O)N3CCC[C@H]3c3nc4cc(Cl)c(Cl)cc4[nH]3)CC2)cc1-c1ccncc1", "nM", 6.7),
    ("O=C(CCN1CCC(c2nc(-c3cnccn3)no2)CC1)N1CCC[C@H]1c1nc2cc(Cl)c(Cl)cc2[nH]1", "nM", 435),
    ("O=C(CCN1CCC(c2nc(-c3cccnc3)no2)CC1)N1CCC[C@H]1c1nc2cc(Cl)c(Cl)cc2[nH]1", "nM", 155),
]

Enquiry: Report IC50 for CC(C)(CCCC(=O)N1CCC[C@H]1c1nc2cc(Cl)c(Cl)cc2[nH]1)N1CCC(c2nc(-c3ccccn3)no2)CC1 please.
Return: 113

Enquiry: What value of IC50 has been recorded for this entry: O=C(CCN1CCC(c2nc(-c3ccncc3)no2)CC1)N1CCC[C@H]1c1nc2cc(Cl)c(Cl)cc2[nH]1
Return: 29

Enquiry: Look up IC50 for this molecule: CS(=O)(=O)c1ccc(-c2noc(C3CCN(CCC(=O)N4CCC[C@H]4c4nc5cc(Cl)c(Cl)cc5[nH]4)CC3)n2)cc1
Return: 10
